Attribution: paper PMC10011503

# System Tested: T1, FCoV nucleocapsid protein N (Feline alphacoronavirus (FCoV/FIPV) …, UniProt P25909 1-377)
# T1 sequence: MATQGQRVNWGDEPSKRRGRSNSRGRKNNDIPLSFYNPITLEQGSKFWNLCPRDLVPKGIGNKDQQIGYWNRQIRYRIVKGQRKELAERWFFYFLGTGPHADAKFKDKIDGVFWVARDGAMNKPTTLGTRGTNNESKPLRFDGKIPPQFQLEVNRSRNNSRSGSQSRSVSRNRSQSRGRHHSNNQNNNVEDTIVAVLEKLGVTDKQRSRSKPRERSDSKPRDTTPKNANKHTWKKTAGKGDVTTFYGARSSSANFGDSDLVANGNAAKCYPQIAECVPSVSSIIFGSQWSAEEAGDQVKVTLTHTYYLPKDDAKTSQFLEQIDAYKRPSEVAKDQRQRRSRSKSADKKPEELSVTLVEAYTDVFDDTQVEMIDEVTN
# Measurement Description: filter binding; 320 mM NaCl; Filter binding: 40 mM Tris-HCl pH 7.4, 80 mM NaCl (160, 320 in series), 20 mM KCl, 1 mM DTT, room temperature, 30-45 min; BLI: 20 mM Tris-HCl pH 7.4, 80 mM NaCl, 20 mM KCl, 1 mM DTT, room temperature
# Setup Conditions: protein: recombinant; tags: C-terminal His (pET-30a(+), NdeI/HindIII); chain copies: 2; label: [alpha-32P]GTP, internal
pKd: −log10 of the molar value.
Measured Property: pKd

>>> observed("ACUUUUAAAGUAAAGUGAGUGUAGCGUGGCUAUAAC (ssRNA) [vRNA 5' NCR (36 nt, radiolabeled)]")
7.46
